system.name: Muscarinic acetylcholine receptor
assay.text: Muscarinic acetylcholine receptor binding assay was conducted using [3H]quinuclidinyl benzilate (QNB) to label antagonist sites in membrane preparations from rat neocortex

>  <compound>
C#CCC#CCO/N=C1\CN2CCC1C2 (stereo not drawn)

>  <IC50 (µM)>
8.834

$$$$
>  <compound>
CC(C)=CCO/N=C1\CN2CCC1C2 (stereo not drawn)

>  <IC50 (µM)>
1.27

$$$$
>  <compound>
C#C/C(C)=C/CO/N=C1\CN2CCC1C2 (stereo not drawn)

>  <IC50 (µM)>
2.06

$$$$

###

system.name: Muscarinic acetylcholine receptor (Rattus norvegicus) (UniProt P08482+P08483+P08485+P08911+P10980)
assay.text: Ratio of QNB binding to CMD binding was evaluated
Format: protein assay
A collection of compounds and their measured Ratio
measured.metric: Ratio

>  <compound>
C(#Cc1ccsc1)CO/N=C1\CN2CCC1C2 (centres undefined)

>  <measured.metric>
Ratio

>  <test.result>
163

$$$$
>  <compound>
Clc1cccc(C#CCO/N=C2\CN3CCC2C3)c1 (centres undefined)

>  <measured.metric>
Ratio

>  <test.result>
203

$$$$
>  <compound>
C(#Cc1ccccc1)CO/N=C1\CN2CCC1C2 (centres undefined)

>  <measured.metric>
Ratio

>  <test.result>
108

$$$$
>  <compound>
C#CCO/N=C1\CN2CCC1C2 (centres undefined)

>  <measured.metric>
Ratio

>  <test.result>
1240

$$$$
>  <compound>
C(#Cc1cccs1)CO/N=C1\CN2CCC1C2 (centres undefined)

>  <measured.metric>
Ratio

>  <test.result>
173

$$$$
>  <compound>
O=[N+]([O-])c1cccc(C#CCO/N=C2\CN3CCC2C3)c1 (centres undefined)

>  <measured.metric>
Ratio

>  <test.result>
227

$$$$
>  <compound>
C#C/C=C/CO/N=C1\CN2CCC1C2 (centres undefined)

>  <measured.metric>
Ratio

>  <test.result>
398

$$$$
>  <compound>
Clc1ccccc1C#CCO/N=C1\CN2CCC1C2 (centres undefined)

>  <measured.metric>
Ratio

>  <test.result>
107

$$$$
>  <compound>
C#CCC#CCC#CCO/N=C1\CN2CCC1C2 (centres undefined)

>  <measured.metric>
Ratio

>  <test.result>
119

$$$$
>  <compound>
CC(C)=CCO/N=C1\CN2CCC1C2 (centres undefined)

>  <measured.metric>
Ratio

>  <test.result>
179

$$$$
>  <compound>
Cc1ccc(C#CCO/N=C2\CN3CCC2C3)cc1 (centres undefined)

>  <measured.metric>
Ratio

>  <test.result>
124

$$$$
>  <compound>
Clc1ccc(C#CCO/N=C2\CN3CCC2C3)cc1 (centres undefined)

>  <measured.metric>
Ratio

>  <test.result>
119

$$$$
>  <compound>
COc1ccccc1C#CCO/N=C1\CN2CCC1C2 (centres undefined)

>  <measured.metric>
Ratio

>  <test.result>
80.7

$$$$
>  <compound>
Fc1cccc(C#CCO/N=C2\CN3CCC2C3)c1 (centres undefined)

>  <measured.metric>
Ratio

>  <test.result>
132

$$$$
>  <compound>
CO/N=C1\CN2CCC1C2 (centres undefined)

>  <measured.metric>
Ratio

>  <test.result>
1340

$$$$
>  <compound>
COc1cccc(C#CCO/N=C2\CN3CCC2C3)c1 (centres undefined)

>  <measured.metric>
Ratio

>  <test.result>
250

$$$$
>  <compound>
C=CCO/N=C1\CN2CCC1C2 (centres undefined)

>  <measured.metric>
Ratio

>  <test.result>
91.7

$$$$
>  <compound>
C#C/C(C)=C\CO/N=C1\CN2CCC1C2 (centres undefined)

>  <measured.metric>
Ratio

>  <test.result>
790

$$$$
>  <compound>
C#CCC#CCO/N=C1\CN2CCC1C2 (centres undefined)

>  <measured.metric>
Ratio

>  <test.result>
402

$$$$
>  <compound>
COc1ccc(C#CCO/N=C2\CN3CCC2C3)cc1 (centres undefined)

>  <measured.metric>
Ratio

>  <test.result>
119

$$$$
>  <compound>
C#C/C(C)=C/CO/N=C1\CN2CCC1C2 (centres undefined)

>  <measured.metric>
Ratio

>  <test.result>
480

$$$$
>  <compound>
Fc1ccccc1C#CCO/N=C1\CN2CCC1C2 (centres undefined)

>  <measured.metric>
Ratio

>  <test.result>
160

$$$$
>  <compound>
C/C(C#Cc1ccccc1)=C\CO/N=C1\CN2CCC1C2 (centres undefined)

>  <measured.metric>
Ratio

>  <test.result>
7.93

$$$$
>  <compound>
Fc1ccc(C#CCO/N=C2\CN3CCC2C3)cc1 (centres undefined)

>  <measured.metric>
Ratio

>  <test.result>
204

$$$$

###

system.name: Muscarinic acetylcholine receptor M5 (Homo sapiens) (UniProt P08912)
Sequence (P08912 whole entry): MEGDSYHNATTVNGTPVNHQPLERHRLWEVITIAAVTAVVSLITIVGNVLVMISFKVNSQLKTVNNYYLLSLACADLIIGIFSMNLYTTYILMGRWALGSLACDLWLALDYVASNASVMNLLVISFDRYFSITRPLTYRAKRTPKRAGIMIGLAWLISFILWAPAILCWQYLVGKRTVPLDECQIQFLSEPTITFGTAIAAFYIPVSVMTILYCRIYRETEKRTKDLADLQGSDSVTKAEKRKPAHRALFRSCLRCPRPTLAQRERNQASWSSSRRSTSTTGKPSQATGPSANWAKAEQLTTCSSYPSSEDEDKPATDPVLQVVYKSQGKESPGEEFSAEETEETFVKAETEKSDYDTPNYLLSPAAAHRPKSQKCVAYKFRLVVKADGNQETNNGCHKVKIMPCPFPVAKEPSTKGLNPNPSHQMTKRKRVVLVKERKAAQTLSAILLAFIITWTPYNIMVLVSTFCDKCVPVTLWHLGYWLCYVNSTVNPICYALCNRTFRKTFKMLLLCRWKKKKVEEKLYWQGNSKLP
assay.text: Amplification of transfected NIH3T3 cells was measured in Muscarinic acetylcholine receptor M5 required to produce half maximal effect
Format: functional, cell-based

>  <molecule>
COc1cccc(C#CCO/N=C2\CN3CCC2C3)c1 (centres undefined)

>  <ED50, nM>
5990

$$$$
>  <molecule>
C[N+](C)(C)CCOC(N)=O

>  <ED50, nM>
1400

$$$$
>  <molecule>
COc1cccc(C#CCO/N=C2\CN3CC[C@H]2C3)c1

>  <ED50, nM>
2590

$$$$
>  <molecule>
COc1cccc(C#CCO/N=C2\CN3CC[C@@H]2C3)c1

>  <ED50, nM>
868

$$$$

###

system.name: Muscarinic acetylcholine receptor M2 (Homo sapiens, UniProt P08172)
Sequence (P08172 whole entry): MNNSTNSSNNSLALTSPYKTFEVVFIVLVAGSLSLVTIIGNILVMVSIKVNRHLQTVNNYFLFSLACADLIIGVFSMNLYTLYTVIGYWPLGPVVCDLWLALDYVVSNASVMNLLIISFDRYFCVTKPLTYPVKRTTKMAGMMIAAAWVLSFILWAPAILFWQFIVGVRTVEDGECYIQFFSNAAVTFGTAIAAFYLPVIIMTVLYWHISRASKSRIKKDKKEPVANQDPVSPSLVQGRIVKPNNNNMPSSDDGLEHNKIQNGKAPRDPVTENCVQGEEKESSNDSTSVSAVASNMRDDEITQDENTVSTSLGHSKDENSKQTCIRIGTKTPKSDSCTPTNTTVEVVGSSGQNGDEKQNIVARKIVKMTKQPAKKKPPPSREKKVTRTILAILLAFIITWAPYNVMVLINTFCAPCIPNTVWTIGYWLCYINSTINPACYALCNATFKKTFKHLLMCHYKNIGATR
assay.text: Binding affinity of [3H]QNB to CHO cells expressing human Muscarinic acetylcholine receptor M2
Type: cell-based
pIC50: −log10 of the molar value.
Could you label it Yes if measured pIC50 is 5 or higher, and No otherwise?

>  <molecule>
C#CCO/N=C1\CN2CCC1C2 (stereo not drawn)

>  <system.name>
Muscarinic acetylcholine receptor M2 (Homo sapiens, UniProt P08172)

>  <cat>
Yes

$$$$
>  <molecule>
O=[N+]([O-])c1cccc(C#CCO/N=C2\CN3CCC2C3)c1 (stereo not drawn)

>  <system.name>
Muscarinic acetylcholine receptor M2 (Homo sapiens, UniProt P08172)

>  <cat>
No

$$$$
>  <molecule>
Clc1ccccc1C#CCO/N=C1\CN2CCC1C2 (stereo not drawn)

>  <system.name>
Muscarinic acetylcholine receptor M2 (Homo sapiens, UniProt P08172)

>  <cat>
Yes

$$$$
>  <molecule>
C#C/C(C)=C\CO/N=C1\CN2CCC1C2 (stereo not drawn)

>  <system.name>
Muscarinic acetylcholine receptor M2 (Homo sapiens, UniProt P08172)

>  <cat>
Yes

$$$$
>  <molecule>
C#C/C=C/CO/N=C1\CN2CCC1C2 (stereo not drawn)

>  <system.name>
Muscarinic acetylcholine receptor M2 (Homo sapiens, UniProt P08172)

>  <cat>
Yes

$$$$
>  <molecule>
Clc1ccc(C#CCO/N=C2\CN3CCC2C3)cc1 (stereo not drawn)

>  <system.name>
Muscarinic acetylcholine receptor M2 (Homo sapiens, UniProt P08172)

>  <cat>
No

$$$$

###

system.name: UniProtKB P08172
assay.text: Binding affinity of [3H]QNB to CHO cells expressing human Muscarinic acetylcholine receptor M2
Type: cell-based
pIC50: −log10 of the molar value.

>  <molecule>
COc1ccccc1C#CCO/N=C1\CN2CCC1C2 (stereo not drawn)

>  <pIC50>
4.16

$$$$
>  <molecule>
Fc1cccc(C#CCO/N=C2\CN3CCC2C3)c1 (stereo not drawn)

>  <pIC50>
4.32

$$$$
>  <molecule>
C#C/C(C)=C/CO/N=C1\CN2CCC1C2 (stereo not drawn)

>  <pIC50>
5.22

$$$$
>  <molecule>
CO/N=C1\CN2CCC1C2 (stereo not drawn)

>  <pIC50>
4.77

$$$$
>  <molecule>
C(#Cc1cccs1)CO/N=C1\CN2CCC1C2 (stereo not drawn)

>  <pIC50>
5.05

$$$$
>  <molecule>
COc1ccc(C#CCO/N=C2\CN3CCC2C3)cc1 (stereo not drawn)

>  <pIC50>
4.07

$$$$
>  <molecule>
C(#Cc1ccsc1)CO/N=C1\CN2CCC1C2 (stereo not drawn)

>  <pIC50>
4.82

$$$$
>  <molecule>
Cc1ccc(C#CCO/N=C2\CN3CCC2C3)cc1 (stereo not drawn)

>  <pIC50>
4.41

$$$$
>  <molecule>
Fc1ccc(C#CCO/N=C2\CN3CCC2C3)cc1 (stereo not drawn)

>  <pIC50>
4.57

$$$$
>  <molecule>
Fc1ccccc1C#CCO/N=C1\CN2CCC1C2 (stereo not drawn)

>  <pIC50>
4.68

$$$$
>  <molecule>
C#CCC#CCO/N=C1\CN2CCC1C2 (stereo not drawn)

>  <pIC50>
5.09

$$$$
>  <molecule>
Clc1cccc(C#CCO/N=C2\CN3CCC2C3)c1 (stereo not drawn)

>  <pIC50>
4.69

$$$$
>  <molecule>
COc1cccc(C#CCO/N=C2\CN3CCC2C3)c1 (stereo not drawn)

>  <pIC50>
4.28

$$$$

Cited source for all entries: ChEMBL document CHEMBL1131286
